System: 186277-243-T-J2-PDC complex spheroid viability
RUN_DESCRIPTION: Anticancer human tumor 186277-243-T-J2-PDC patient-derived colon adenocarcinoma cell line growth inhibition
TEST_PARAMETERS: second compound 10 µM; first compound 0.3 µM; hits give low values
Returns: string. Value is class 1 if measured viability, T/C is below 60%, and class 0 if it is greater than or equal to it.

Please review the following examples before continuing.
NS(=O)(=O)OCC1CC(n2ccc3c(NC4CCc5ccccc54)ncnc32)CC1O (configuration not stated) + NC1CCC(NC2CC2c2ccccc2)CC1    class 0
CCc1c2c(nc3ccc(O)cc13)-c1cc3c(c(=O)n1C2)COC(=O)[C@]3(O)CC + NC1CC1c1ccc(-c2cccc(O)c2)cc1    class 1
COc1cc(C2c3cc4c(cc3C(OC3OC5COC(C)OC5C(O)C3O)C3COC(=O)C23)OCO4)cc(OC)c1O (configuration not stated) + NC1CC1c1ccc(-c2cccc(O)c2)cc1    class 0

q: API: query returns whether the compound falls strictly under 60% in viability, T/C. Query: NS(=O)(=O)OCC1CC(n2ccc3c(NC4CCc5ccccc54)ncnc32)CC1O (configuration not stated) + NC1CC1c1ccc(-c2cccc(O)c2)cc1
a: class 1

q: API: query returns whether the compound falls strictly under 60% in viability, T/C. Query: O=C(C=Cc1cccc(S(=O)(=O)Nc2ccccc2)c1)NO + NC1CCC(NC2CC2c2ccccc2)CC1
a: class 1

q: API: query returns whether the compound falls strictly under 60% in viability, T/C. Query: CCN(c1cc(-c2ccc(CN3CCOCC3)cc2)cc(C(=O)NCc2c(C)cc(C)[nH]c2=O)c1C)C1CCOCC1 + NC1CC1c1ccc(-c2cccc(O)c2)cc1
a: class 0

q: API: query returns whether the compound falls strictly under 60% in viability, T/C. Query: Nc1ccn(C2OC(CO)C(O)C2(F)F)c(=O)n1 (configuration not stated) + NC1CCC(NC2CC2c2ccccc2)CC1
a: class 1

---

Listed here: items and their measured viability, T/C.
Test system: 186277-243-T-J2-PDC complex spheroid viability
RUN_DESCRIPTION: Anticancer human tumor 186277-243-T-J2-PDC cell line growth inhibition;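 note: 7 day exposure to compounds; 100% = DMSO vehicle control viability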
TEST_PARAMETERS: second compound 0.1 µM; first compound 0.00316 µM; hits give low values

Solved entries (count: 5):
CC(C)CC(NC(=O)C(Cc1ccccc1)NC(=O)c1cnccn1)B(O)O (stereo unspecified) + NC1CCC(NC2CC2c2ccccc2)CC1    58.1%
Cn1ncnc1C1c2n[nH]c(=O)c3cc(F)cc(c23)NC1c1ccc(F)cc1 (stereo unspecified) + NC1CC1c1ccc(-c2cccc(O)c2)cc1    112%
CC(C)CC(NC(=O)C(Cc1ccccc1)NC(=O)c1cnccn1)B(O)O (stereo unspecified) + NC1CC1c1ccc(-c2cccc(O)c2)cc1    0.06%
O=C(C=Cn1cnc(-c2cc(C(F)(F)F)cc(C(F)(F)F)c2)n1)NNc1cnccn1 + NC1CCC(NC2CC2c2ccccc2)CC1    98.7%
CC1COCCN1c1cc(-c2ccnn2C)c2ccnc(-c3ccn[nH]3)c2n1 (stereo unspecified) + NC1CC1c1ccc(-c2cccc(O)c2)cc1    20.3%

Briefly, viability, T/C measured for COc1cc(Nc2ncc3c(n2)-c2ccc(Cl)cc2C(c2c(F)cccc2OC)=NC3)ccc1C(=O)O + NC1CCC(NC2CC2c2ccccc2)CC1 : 131%

Briefly, viability, T/C measured for CC[C@@]1(O)C(=O)OCc2c1cc1n(c2=O)Cc2cc3c(CN(C)C)c(O)ccc3nc2-1 + NC1CCC(NC2CC2c2ccccc2)CC1 : 137%

Briefly, viability, T/C measured for Nc1ncn(C2CC(O)C(CO)O2)c(=O)n1 (stereo unspecified) + NC1CCC(NC2CC2c2ccccc2)CC1 : 97.6%

Briefly, viability, T/C measured for CC[C@@]1(O)C(=O)OCc2c1cc1n(c2=O)Cc2cc3c(CN(C)C)c(O)ccc3nc2-1 + NC1CC1c1ccc(-c2cccc(O)c2)cc1 : 153%

Briefly, viability, T/C measured for CC1COCCN1c1cc(-c2ccnn2C)c2ccnc(-c3ccn[nH]3)c2n1 (stereo unspecified) + NC1CCC(NC2CC2c2ccccc2)CC1 : 84.2%

Briefly, viability, T/C measured for O=C(C=Cn1cnc(-c2cc(C(F)(F)F)cc(C(F)(F)F)c2)n1)NNc1cnccn1 + NC1CC1c1ccc(-c2cccc(O)c2)cc1 : 97.5%

Briefly, viability, T/C measured for CC(C)CC(NC(=O)CNC(=O)c1cc(Cl)ccc1Cl)B1OC(=O)CC(CC(=O)O)(C(=O)O)O1 (stereo unspecified) + NC1CCC(NC2CC2c2ccccc2)CC1 : 115%

Briefly, viability, T/C measured for COc1cc(Nc2ncc3c(n2)-c2ccc(Cl)cc2C(c2c(F)cccc2OC)=NC3)ccc1C(=O)O + NC1CC1c1ccc(-c2cccc(O)c2)cc1 : 128%

Briefly, viability, T/C measured for CC(C)CC(NC(=O)CNC(=O)c1cc(Cl)ccc1Cl)B1OC(=O)CC(CC(=O)O)(C(=O)O)O1 (stereo unspecified) + NC1CC1c1ccc(-c2cccc(O)c2)cc1 : 111%

Briefly, viability, T/C measured for Cn1ncnc1C1c2n[nH]c(=O)c3cc(F)cc(c23)NC1c1ccc(F)cc1 (stereo unspecified) + NC1CCC(NC2CC2c2ccccc2)CC1 : 111%

Briefly, viability, T/C measured for Nc1ncn(C2CC(O)C(CO)O2)c(=O)n1 (stereo unspecified) + NC1CC1c1ccc(-c2cccc(O)c2)cc1 : 108%

The measurements presented in this section are drawn from PubChem BioAssay AID1918933.
